From: ChEMBL document CHEMBL5604062

system: Nonstructural protein 3 (Zika virus)
assay.comment: Functional biochemical assay to identify treatments for viral infectious disease that targets Zika NS2B-NS3 protease. Utilizing a direct enzyme activity measurement method, reading the fluorescence intensity is used to characterize the relative potency of inhibitors as IC50.
Set-up: species or system PRVABC59
experimental.endpoint: IC50

Use the examples below as a reference point.
{"columns": ["compound", "experimental.result"],
 "data": [
  ["O=C(NC[C@H]1CCOC1)c1cc(Cl)ccc1NS(=O)(=O)c1ccc(Oc2ccccc2Cl)cc1", "> 99.5 µM"],
  ["O=C(c1cc(Cl)cc2[nH]ncc12)N1C[C@H]2CNC[C@H]2C1", "> 99.5 µM"]
]}

Below are some molecules; for each one, tell me its IC50.
1. O=C(Nc1ccc2c(c1)CNC2)c1cc(=O)[nH]c2c(F)cccc12
2. NCCNS(=O)(=O)c1ccc(NC(=O)c2cc(Cl)cc(NC(=O)OCc3ccccc3)c2)cc1
3. Fc1cccc(F)c1-c1n[nH]cc1CN1CCC(c2nc3ccccc3s2)CC1

18.7 µM
10.9 µM
> 99.5 µM

----------
system: UniProtKB A0A024AXB9
assay.comment: Functional biochemical assay to identify treatments for viral infectious disease that targets Zika NS2B-NS3 protease. Utilizing a direct enzyme activity measurement method, reading the fluorescence intensity is used to characterize the relative potency of inhibitors as IC50.
Set-up: species or system PRVABC59
experimental.endpoint: IC50

Would you mind listing IC50 for each of the following compounds?
1. NCCCc1ccnc(NC(=O)c2cnn3c2CCC3)c1
2. CCn1cc(-c2cnc3ccnn3c2)nc(N2CC[C@@H](CO)C2)c1=O
3. CCn1c(=O)c(N2CC[C@@]3(COC(=O)N3)C2)nc2ccccc21
4. NC[C@H]1CC[C@H](CNC(=O)[C@@H](NC(=O)OCc2ccccc2)c2ccc(OCc3ccccc3)cc2)CC1
5. O=C(Nc1ccc2c(c1)CNC2)c1ccc(F)c2[nH]ncc12
6. NCc1cccc(NC(=O)c2cc(C3CC3)n3nccc3n2)c1

["> 25 µM", "> 99.5 µM", "> 99.5 µM", "80.3 µM", "2.65 µM", "> 99.5 µM"]

----------
system: Nonstructural protein 3 (Zika virus)
assay.comment: Functional biochemical assay to identify treatments for viral infectious disease that targets Zika NS2B-NS3 protease. Utilizing a direct enzyme activity measurement method, reading the fluorescence intensity is used to characterize the relative potency of inhibitors as IC50.
Design: species or system PRVABC59
pIC50: −log10 of the molar value.
Please provide measured pIC50 for the entries that follow.

Consider the worked cases shown below.
{"columns": ["compound", "experimental.endpoint", "experimental.result"],
 "data": [
  ["CS(=O)(=O)N1CCC([C@@H](NC(=O)OCc2ccccc2)C(=O)Nc2cccc(CN)c2)CC1", "pIC50", "< 4.00"],
  ["Cc1n[nH]cc1-c1ccc([C@@H](NC(=O)OCc2ccccc2)C(=O)Nc2cccc(CN)c2)cc1", "pIC50", "< 4.00"]
]}

Switching to the query record.
Request the reported pIC50 associated with c1cncc(-c2cc(CN3CCC(c4cscn4)CC3)n[nH]2)c1
< 4.00

----------
system: Nonstructural protein 3 (Zika virus, UniProt A0A024AXB9)
Sequence (A0A024AXB9 whole entry): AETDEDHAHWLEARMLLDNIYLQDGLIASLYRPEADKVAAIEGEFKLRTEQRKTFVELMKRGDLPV
assay.comment: Functional biochemical assay to identify treatments for viral infectious disease that targets Zika NS2B-NS3 protease. Utilizing a direct enzyme activity measurement method, reading the fluorescence intensity is used to characterize the relative potency of inhibitors as IC50.
Set-up: species or system PRVABC59
I'd appreciate it if you could supply IC50 values for the items below.

Some entries whose results are on file:
{"columns": ["compound", "IC50"],
 "data": [
  ["c1cc(CN2CCC(c3c[nH]c4cccnc34)CC2)c2[nH]ncc2c1", "> 99.5 µM"],
  ["O=C(Nc1ccc2c(c1)CNC2)c1n[nH]c2ncc(Br)cc12", "46.1 µM"],
  ["O=C(Nc1ccc2c(c1)CN[C@H]2CC1CC1)c1cc(F)cc2[nH]ncc12", "0.192 µM"],
  ["COCCOc1ccc(Cl)cc1C(=O)Nc1ccc2c(c1)CNC2", "3.06 µM"],
  ["O=Cc1ccc(N2CCC(C(=O)NCCc3ccc(O)c(O)c3)CC2)cc1", "55.9 µM"],
  ["O=S(=O)(Nc1ccc(Cl)cc1CO)c1ccc(Oc2ccccc2Cl)cc1", "> 99.5 µM"],
  ["O=C(O)c1cccc(NC(=O)c2cccc(OCc3c(Cl)cccc3Cl)c2)c1", "> 99.5 µM"],
  ["NC[C@H]1CC[C@H](NC(=O)c2cc(Cl)cc(NC(=O)OCc3ccccc3)c2)CC1", "> 99.5 µM"],
  ["CC(C)(C)NC(=O)[C@H](Nc1cccc(-c2nn[nH]n2)c1)c1cc(Cl)cc(NC(=O)OCc2ccccc2)c1", "27.8 µM"],
  ["CN(C)C[C@@]1(O)CCN(C(=O)c2cc(C=O)c[nH]2)C1", "> 99.5 µM"]
]}

Please go through the list and note IC50 for each compound.
1. NCc1cccc(NC(=O)[C@@H](NC(=O)OCc2ccccc2)c2ccc(OCc3nc4c(s3)COCC4)cc2)c1
2. CNCCS(=O)(=O)N1CCC([C@H](NC(=O)OCc2ccccc2)C(=O)Nc2cccc(CN)c2)CC1
3. c1ccc2c([C@H]3CCN(CC[C@H]4CCCO4)C3)c[nH]c2c1
4. CNC(=O)[C@H](Nc1cccc(-c2nn[nH]n2)c1)c1cc(Cl)cc2[nH]ncc12

["65.1 µM", "> 99.5 µM", "> 99.5 µM", "9.2 µM"]

Report IC50 for every entry below.
1. O=C(O)c1c(Br)sc2nnsc12
2. CCC(=O)N1CCc2ccc(NS(=O)(=O)c3ccc(Cl)cc3C(=O)O)cc21
3. CCn1cc(-c2cn(C)nc2C(F)(F)F)nc(N2CC[C@@H](CO)C2)c1=O
4. CCn1ccnc(N2CC[C@H](c3c[nH]c4ccccc34)C2)c1=O
5. NCc1ccnc(CNC(=O)[C@@H](NC(=O)OCc2ccccc2)c2ccc(OCc3ccccc3)cc2)c1

40.2 µM
> 99.5 µM
> 99.5 µM
> 99.5 µM
93.7 µM

Dear reader, for each entry below, please note its IC50.
1. C[C@H](NC(=O)c1cccc2c1CC(=O)N2)c1cccc(S(C)(=O)=O)c1
2. C#C[C@H](Nc1cccc(C(=O)O)c1)c1cc(Cl)cc2[nH]ncc12

["> 25 µM", "> 99.5 µM"]
